Ref: ChEMBL document CHEMBL4325885

# Lookup of reported inhibition keyed by entry
TESTED_ON: Proteasome Macropain subunit MB1 (Homo sapiens) (UniProt P28074)
ASSAY_INFO: Inhibition of human chymotrypsin-like activity of 20S constitutive proteasome at 10 uM using Suc-LLVY-AMC as substrate preincubated for 15 mins followed by substrate addition by fluorescence assay relative to control
OUTCOME_MEASURE: inhibition (%)

INSERT INTO results (structure_smiles, assay_result) VALUES
  ('CCCc1ccc(OCC(=O)N(CCC(=O)Nc2cccnc2)C(C)C)cc1', 15.5),
  ('CCCc1ccc(OCC(=O)N(CC(=O)NCc2cccnc2)C(C)C)cc1', 1.16),
  ('CCCc1ccc(OCC(=O)N(CCNC(=O)NCc2cccnc2)C(C)C)cc1', 38.7),
  ('CCCc1ccc(OCC(=O)N(Cc2nc(-c3cccnc3)no2)C(C)C)cc1', 80.2),
  ('CCCc1ccc(OCC(=O)N(CCC(=O)NCc2cccnc2)C(C)C)cc1', 12.7),
  ('CCCc1ccc(OCC(=O)N(CCNC(=O)Nc2cccnc2)C(C)C)cc1', 13.8),
  ('CCCc1ccc(OCC(=O)N(CCNC(=O)c2cccnc2)C(C)C)cc1', 30.8),
  ('CCCc1ccc(OCC(=O)N(CC(=O)Nc2cccnc2)C(C)C)cc1', 58.2);

* * *

TESTED_ON: Proteasome Macropain subunit MB1 (Homo sapiens)
ASSAY_INFO: Inhibition of human chymotrypsin-like activity of 20S constitutive proteasome using Suc-LLVY-AMC as substrate preincubated for 15 mins followed by substrate addition by fluorescence assay
OUTCOME_MEASURE: IC50 (µM)

INSERT INTO results (structure_smiles, tested_on, outcome_measure, censoring_qualifier, assay_result) VALUES
  ('CCCc1ccc(OCC(=O)N(CC(=O)Nc2cncnc2)C(C)C)cc1', 'Proteasome Macropain subunit MB1 (Homo sapiens)', 'IC50', '=', 0.28),
  ('CCCc1ccc(OCC(=O)N(Cc2nc(-c3cccnc3)no2)C(C)C)cc1', 'Proteasome Macropain subunit MB1 (Homo sapiens)', 'IC50', '=', 0.092),
  ('Cc1ccc(OCC(=O)N(CC(=O)Nc2ccnnc2)C(C)C)cc1', 'Proteasome Macropain subunit MB1 (Homo sapiens)', 'IC50', '=', 0.481),
  ('CCCc1ccc(OCC(=O)N(CC(=O)Nc2ccccc2OC)C(C)C)cc1', 'Proteasome Macropain subunit MB1 (Homo sapiens)', 'IC50', '>', 10),
  ('CCCc1ccc(OCC(=O)N(CC(=O)Nc2ccc3ccccc3c2)C(C)C)cc1', 'Proteasome Macropain subunit MB1 (Homo sapiens)', 'IC50', '=', 5.91),
  ('CCCc1ccc(OCC(=O)N(CC(=O)Nc2ccc(S(C)(=O)=O)cc2)C(C)C)cc1', 'Proteasome Macropain subunit MB1 (Homo sapiens)', 'IC50', '=', 0.23),
  ('CCCc1ccc(OCC(=O)N(CC(=O)Nc2ccc(OC)c(OC)c2)C(C)C)cc1', 'Proteasome Macropain subunit MB1 (Homo sapiens)', 'IC50', '=', 4.73);

* * *

# Lookup of reported pIC50 keyed by entry
TESTED_ON: Proteasome Macropain subunit MB1 (Homo sapiens, UniProt P28074)
ASSAY_INFO: Inhibition of human chymotrypsin-like activity of 20S constitutive proteasome using Suc-LLVY-AMC as substrate preincubated for 15 mins followed by substrate addition by fluorescence assay
pIC50: −log10 of the molar value.
OUTCOME_MEASURE: pIC50

INSERT INTO assay_data (structure_smiles, tested_on, assay_result) VALUES
  ('CCCCCc1ccc(OCC(=O)N(CC(=O)Nc2ccnnc2)C(C)C)cc1', 'Proteasome Macropain subunit MB1 (Homo sapiens, UniProt P28074)', 7.19),
  ('CCCc1ccc(OCC(=O)N(CC(=O)Nc2ccc(F)cc2)C(C)C)cc1', 'Proteasome Macropain subunit MB1 (Homo sapiens, UniProt P28074)', 5.92),
  ('CCCc1ccc(OCC(=O)N(CC(=O)Nc2ccc(OC)cc2)C(C)C)cc1', 'Proteasome Macropain subunit MB1 (Homo sapiens, UniProt P28074)', 6.02),
  ('CCCc1ccc(OCC(=O)N(CC(=O)Nc2ccc(C(F)(F)F)cc2)C(C)C)cc1', 'Proteasome Macropain subunit MB1 (Homo sapiens, UniProt P28074)', 6.04),
  ('COc1ccc(OCC(=O)N(CC(=O)Nc2ccnnc2)C(C)C)cc1', 'Proteasome Macropain subunit MB1 (Homo sapiens, UniProt P28074)', 6.24),
  ('CC(C)N(CC(=O)Nc1ccnnc1)C(=O)COc1ccc(Br)cc1', 'Proteasome Macropain subunit MB1 (Homo sapiens, UniProt P28074)', 6.39),
  ('CCCc1ccc(OCC(=O)N(CC(=O)Nc2ccnnc2)C(C)C)cc1', 'Proteasome Macropain subunit MB1 (Homo sapiens, UniProt P28074)', 7.05),
  ('CC(C)Cc1ccc(OCC(=O)N(CC(=O)Nc2ccnnc2)C(C)C)cc1', 'Proteasome Macropain subunit MB1 (Homo sapiens, UniProt P28074)', 6.93),
  ('CCCc1ccc(OCC(=O)N(CC(=O)Nc2cnccn2)C(C)C)cc1', 'Proteasome Macropain subunit MB1 (Homo sapiens, UniProt P28074)', 6.40),
  ('CC(C)N(CC(=O)Nc1ccnnc1)C(=O)COc1ccc(C(F)(F)F)cc1', 'Proteasome Macropain subunit MB1 (Homo sapiens, UniProt P28074)', 6.02),
  ('CCCCc1ccc(OCC(=O)N(CC(=O)Nc2ccnnc2)C(C)C)cc1', 'Proteasome Macropain subunit MB1 (Homo sapiens, UniProt P28074)', 7.31);

* * *

TESTED_ON: Proteasome Macropain subunit MB1 (Homo sapiens, UniProt P28074)
Sequence (P28074 whole entry): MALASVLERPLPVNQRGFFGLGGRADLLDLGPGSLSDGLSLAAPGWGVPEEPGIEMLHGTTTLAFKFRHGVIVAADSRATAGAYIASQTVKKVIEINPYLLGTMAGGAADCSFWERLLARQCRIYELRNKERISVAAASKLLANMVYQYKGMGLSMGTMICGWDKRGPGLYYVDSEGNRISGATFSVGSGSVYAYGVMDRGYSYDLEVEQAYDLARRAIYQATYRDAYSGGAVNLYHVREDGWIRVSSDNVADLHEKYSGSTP
ASSAY_INFO: Inhibition of human chymotrypsin-like activity of 20S constitutive proteasome using Suc-LLVY-AMC as substrate preincubated for 15 mins followed by substrate addition by fluorescence assay
# Lookup of reported IC50 keyed by entry
OUTCOME_MEASURE: IC50

INSERT INTO assay_data (structure_smiles, assay_result) VALUES
  ('CCCc1ccc(OCC(=O)N(CC(=O)Nc2ccccn2)C(C)C)cc1', '836 nM'),
  ('CCc1ccc(OCC(=O)N(CC(=O)Nc2ccnnc2)C(C)C)cc1', '243 nM'),
  ('CCCc1ccc(OCC(=O)N(CC(=O)Nc2cccnc2)C(C)C)cc1', '1680 nM'),
  ('CCCc1ccc(OCC(=O)N(CC(=O)Nc2ccncc2)C(C)C)cc1', '100 nM'),
  ('COC(=O)Cc1ccc(OCC(=O)N(CC(=O)Nc2ccnnc2)C(C)C)cc1', '1560 nM'),
  ('CCCc1ccc(OCC(=O)N(CC(=O)Nc2ccc(C#N)cc2)C(C)C)cc1', '361 nM');

* * *

TESTED_ON: Proteasome Macropain subunit MB1 (Homo sapiens, UniProt P28074)
ASSAY_INFO: Inhibition of human chymotrypsin-like activity of 20S constitutive proteasome using Suc-LLVY-AMC as substrate preincubated for 15 mins followed by substrate addition by fluorescence assay
# Lookup of reported IC50 keyed by entry
OUTCOME_MEASURE: IC50 (nM)

INSERT INTO results (structure_smiles, outcome_measure, assay_result) VALUES
  ('CCCc1ccc(OCC(=O)N(CC(=O)Nc2cccc(OC)c2)C(C)C)cc1', 'IC50', 2000),
  ('CCOc1ccc(OCC(=O)N(CC(=O)Nc2ccnnc2)C(C)C)cc1', 'IC50', 259),
  ('CCCc1ccc(OCC(=O)N(CC(=O)Nc2nc3ccc(OC)cc3s2)C(C)C)cc1', 'IC50', 1110),
  ('CCCc1ccc(OCC(=O)N(CC(=O)Nc2ccon2)C(C)C)cc1', 'IC50', 2010),
  ('CC(C)N(CC(=O)Nc1ccnnc1)C(=O)COc1ccc(CCO)cc1', 'IC50', 968),
  ('CCCc1ccc(OCC(=O)N(CC(=O)Nc2nncs2)C(C)C)cc1', 'IC50', 3860);

* * *

# Lookup of reported pIC50 keyed by entry
Tested on: MM1.S
ASSAY_INFO: Antiproliferative activity against human MM1S cells after 72 hrs by MTS/PMS assay
Format: functional, cell-based
pIC50: −log10 of the molar value.
OUTCOME_MEASURE: pIC50

INSERT INTO measurements (structure_smiles, tested_on, assay_result) VALUES
  ('CCCc1ccc(OCC(=O)N(CC(=O)Nc2ccc(S(C)(=O)=O)cc2)C(C)C)cc1', 'MM1.S', '< 4.70'),
  ('CCCCc1ccc(OCC(=O)N(CC(=O)Nc2ccnnc2)C(C)C)cc1', 'MM1.S', '< 4.70'),
  ('CCCc1ccc(OCC(=O)N(Cc2nc(-c3cccnc3)no2)C(C)C)cc1', 'MM1.S', '< 4.70');
